Data origin, for the record: patent US20240425587A1

A collection of binders and their measured pKd
- assay-system: T1, human PILRA, c-term His-Avi tag (human, UniProt Q9UKJ1 20-197, limits assumed)
- T1 construct: not shown: C-terminal His-Avi tag
- T1 sequence (Q9UKJ1 20-197 limits assumed): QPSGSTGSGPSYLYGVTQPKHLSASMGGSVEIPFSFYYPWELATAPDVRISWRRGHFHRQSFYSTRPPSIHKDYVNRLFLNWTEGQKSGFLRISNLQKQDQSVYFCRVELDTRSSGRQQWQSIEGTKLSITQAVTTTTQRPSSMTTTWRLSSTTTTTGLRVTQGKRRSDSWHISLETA
- test-details: SPR (Biacore), antibody captured, PILRA as analyte
// scale note: pKd = -log10(conc_M); give the bare number

binder	obs-value
E10 (antibody, V domains shown, phage campaign) VH: EVQLLESGGGLVKPGGSLRLSCAASGFTFSNYAMSWVRQAPGKGLEWVAVIYSGADTYYADSVKGRFTISRDDSKNTLYLQMNSLKTEDTAVYYCTRDIGLNYGDYELFDYWGQGTLVTVSS VL: DIVMTQSPLSLPVTPGEPASISCRSSQSLLHSNGYNYLDWYLQKPGQSPQLLIYDASNLETGVPDRFSGSGSGTDFTLKISRVEAEDVGVYYCMQGLQTPYVFGQGTKLEIK	7.84

# pKd (binder: hPA-002 (antibody, V domains shown) VH: QVTLQESGPGILQPSQTLSLTCSFSGFSLSTFGMGVGWIRQPSGKGLEWLAHIWWDDDKYYNPALKSRLTISKDTSKNQVFLKIASVDTADIATYYCARVEDYGNPFDYWGQGTTL VL: DIQMNQSPSSLSASLGDTITITCHASQNIHVWLNWYQQKPGNIPKLLIYKASNLHTGVPSRFSGSGSGTGFTVTISSLQPEDIATYYCQQGQSYPLTFGAGTKLELK ) is 7.63
